Below, each entry is listed alongside its reported Cmax.
PROTOCOL NOTES: Cmax in Sprague-Dawley rat at 10 mg/kg, po and 5 mg/kg, iv after 30 mins
Assay type: ADME, organism-based
MEASUREMENT PARAMETERS: in vivo
Field: value (include unit after the number)

Below: 4 compounds and their reported Cmax.
# MOLECULE, PROPERTY MEASURED, ASSAY VALUE
records = [
    ("Cc1ccc(OCc2c(Cl)cccc2Cl)c(/C=C/Cc2ccccc2/C=C/C(=O)O)c1", "Cmax", "25 µM"),
    ("Cc1ccc(OCc2ccccc2)c(/C=C/Cc2ccccc2/C=C/C(=O)O)c1", "Cmax", "22 µM"),
    ("O=C(O)/C=C/c1ccccc1Cc1ccc2cc(OCc3ccccc3)ccc2c1", "Cmax", "28 µM"),
    ("O=C(/C=C/c1ccccc1Cc1ccc2ccccc2c1)NS(=O)(=O)c1cccs1", "Cmax", "21 µM"),
]

# input for lookup
Find the recorded Cmax belonging to Cc1ccc(OCc2ccccc2)c(C/C=C/c2ccccc2/C=C/C(=O)O)c1 and report it.
22 µM

====

MEASUREMENT TARGET: Prostaglandin E2 receptor EP1 subtype (Homo sapiens, UniProt P34995)
Sequence (P34995 whole entry): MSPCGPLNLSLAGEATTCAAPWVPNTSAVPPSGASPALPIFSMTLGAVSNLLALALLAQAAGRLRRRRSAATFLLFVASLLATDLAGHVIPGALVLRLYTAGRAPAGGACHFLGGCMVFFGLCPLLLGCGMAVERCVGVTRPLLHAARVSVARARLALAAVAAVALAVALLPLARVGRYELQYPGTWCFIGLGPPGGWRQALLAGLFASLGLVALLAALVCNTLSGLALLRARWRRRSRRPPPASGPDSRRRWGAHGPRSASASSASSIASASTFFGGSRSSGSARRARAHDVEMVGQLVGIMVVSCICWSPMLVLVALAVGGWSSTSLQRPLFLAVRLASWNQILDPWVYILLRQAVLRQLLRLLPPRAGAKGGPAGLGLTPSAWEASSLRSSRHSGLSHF
PROTOCOL NOTES: Binding affinity to EP1 receptor
PROPERTY MEASURED: Ki

# MOLECULE, Ki
measured = [
    ("COc1cc(C/C=C/c2ccccc2/C=C/C(=O)NS(=O)(=O)c2cccs2)ccc1OCc1ccccc1", "1.5 µM (antagonist)"),
]

What measured Ki goes with COc1cc(/C=C/Cc2ccccc2/C=C/C(=O)O)ccc1OCc1ccccc1 ?
> 20 µM

Moving on to Cc1ccc(OCc2ccccc2)c(CCCc2ccccc2CCC(=O)NS(=O)(=O)c2cccs2)c1
6.7 µM (antagonist)

Field entry: O=C(/C=C/c1ccccc1/C=C/Cc1ccccc1)NS(=O)(=O)c1cccs1
8.5 µM (antagonist)

Also, COc1ccc(C/C=C/c2ccccc2/C=C/C(=O)NS(=O)(=O)c2cccs2)cc1 please.
2.6 µM (antagonist)

And what about the compound COc1ccc(/C=C/Cc2ccccc2/C=C/C(=O)NS(=O)(=O)c2cccs2)cc1 ?
2.6 µM (antagonist)

And what about the compound Cc1ccc(OCc2c(Cl)cccc2Cl)c(/C=C/Cc2ccccc2/C=C/C(=O)O)c1 ?
6.7 µM (antagonist)

====

Overview of recorded Kb for various compounds
MEASUREMENT TARGET: Prostaglandin E2 receptor EP3 subtype (Homo sapiens) (UniProt P43115)
Sequence (whole entry): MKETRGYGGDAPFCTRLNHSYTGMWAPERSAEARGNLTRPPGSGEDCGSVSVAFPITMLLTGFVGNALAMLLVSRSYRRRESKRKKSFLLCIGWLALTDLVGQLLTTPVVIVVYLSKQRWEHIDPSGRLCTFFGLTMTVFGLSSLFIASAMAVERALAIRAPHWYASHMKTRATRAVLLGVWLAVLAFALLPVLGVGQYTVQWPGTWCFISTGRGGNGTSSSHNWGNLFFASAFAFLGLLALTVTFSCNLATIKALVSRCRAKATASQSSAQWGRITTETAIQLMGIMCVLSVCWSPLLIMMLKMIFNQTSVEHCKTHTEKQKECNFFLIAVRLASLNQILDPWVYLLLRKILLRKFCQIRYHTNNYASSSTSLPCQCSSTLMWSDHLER
PROTOCOL NOTES: Antagonistic activity at EP3 receptor assessed as inhibition of cAMP production in HEK EBNA cells
Type: functional, cell-based
MEASUREMENT PARAMETERS: HEK293-EBNA, filed as antagonist

# MOLECULE, Kb
data = [
    ("Cc1ccc(OCc2ccccc2)c(/C=C/Cc2ccccc2/C=C/C(=O)O)c1", "32 nM"),
    ("COc1ccc(Br)cc1S(=O)(=O)NC(=O)/C=C/c1ccccc1Cc1ccc2cc(OCc3ccccc3)ccc2c1", "0.7 nM"),
    ("COc1ccc(Br)cc1S(=O)(=O)NC(=O)/C=C/c1ccccc1Cc1ccc2ccccc2c1", "0.6 nM"),
    ("Cc1ccc(OCc2ccccc2)c(C/C=C/c2ccccc2/C=C/C(=O)O)c1", "32 nM"),
]

Recorded Kb of Cc1ccc(OCc2c(Cl)cccc2Cl)c(/C=C/Cc2ccccc2/C=C/C(=O)O)c1 , please.
5.8 nM

====

PROTOCOL NOTES: Cmax in Sprague-Dawley rat at 10 mg/kg, po and 5 mg/kg, iv after 1 hr
Format: ADME, organism-based
MEASUREMENT PARAMETERS: in vivo
PROPERTY MEASURED: Cmax (µM)
Form entry: value (µM) — number only.

Given the entry COc1ccc(Br)cc1S(=O)(=O)NC(=O)/C=C/c1ccccc1Cc1ccc2ccccc2c1 , report its measured Cmax.
50

====

MEASUREMENT TARGET: Prostaglandin E2 receptor EP1 subtype (Homo sapiens, UniProt P34995)
PROTOCOL NOTES: Binding affinity to EP1 receptor
PROPERTY MEASURED: Ki

# MOLECULE, Ki
rows = [
    ("COc1cc(/C=C/Cc2ccccc2/C=C/C(=O)NS(=O)(=O)c2cccs2)ccc1OCc1ccccc1", "1.5 µM (antagonist)"),
    ("O=C(/C=C/c1ccccc1Cc1ccc2ccccc2c1)NS(=O)(=O)c1cccs1", "9.6 µM (antagonist)"),
    ("COc1ccc(Br)cc1S(=O)(=O)NC(=O)/C=C/c1ccccc1Cc1ccc2cc(OCc3ccccc3)ccc2c1", "> 100 µM"),
]

Returns the measured Ki for the input molecule. Input: O=C(/C=C/c1ccccc1Cc1ccc2cc(OCc3ccccc3)ccc2c1)NS(=O)(=O)c1cccs1
3.2 µM (antagonist)

Same read-out for Cc1ccc(OCc2ccccc2)c(C/C=C/c2ccccc2/C=C/C(=O)O)c1 ?
19 µM

Also Cc1ccc(OCc2ccccc2)c(C/C=C/c2ccccc2/C=C/C(=O)NS(=O)(=O)c2cccs2)c1 ?
2.3 µM (antagonist)

Next molecule up: Cc1ccc(OCc2ccccc2)c(/C=C/Cc2ccccc2/C=C/C(=O)NS(=O)(=O)c2cccs2)c1
2.3 µM (antagonist)

Could you do the same for O=C(/C=C/c1ccccc1C/C=C/c1ccccc1)NS(=O)(=O)c1cccs1 , please?
8.5 µM (antagonist)

Continue with Cc1ccc(OCc2ccccc2)c(/C=C/Cc2ccccc2/C=C/C(=O)O)c1
19 µM

====

Property: ED50; scope: individual compounds
Tested on: Rattus norvegicus
PROTOCOL NOTES: Antiinflammatory activity against carrageenan-induced paw edema in po dosed rat
Format: functional
// return numeric value only (unit: mg/kg, not printed)

Consider the worked cases shown below.
# MOLECULE, ED50, mg/kg
rows = [
    ("COc1ccc(Br)cc1S(=O)(=O)NC(=O)/C=C/c1ccccc1Cc1ccc2ccccc2c1", 3.3),
    ("Cc1ccc(OCc2ccccc2)c(/C=C/Cc2ccccc2/C=C/C(=O)O)c1", 0.9),
    ("Cc1ccc(OCc2c(Cl)cccc2Cl)c(/C=C/Cc2ccccc2/C=C/C(=O)O)c1", 5.1),
    ("O=C(/C=C/c1ccccc1Cc1ccc2ccccc2c1)NS(=O)(=O)c1cccs1", 1.2),
]

Would you kindly look at the next entry?
GET /values?readout=ED50&item= Cc1ccc(OCc2ccccc2)c(C/C=C/c2ccccc2/C=C/C(=O)O)c1
0.9

====

# Ki values compiled below
MEASUREMENT TARGET: Prostaglandin E2 receptor EP4 subtype (Homo sapiens, UniProt P35408)
Sequence (P35408 whole entry): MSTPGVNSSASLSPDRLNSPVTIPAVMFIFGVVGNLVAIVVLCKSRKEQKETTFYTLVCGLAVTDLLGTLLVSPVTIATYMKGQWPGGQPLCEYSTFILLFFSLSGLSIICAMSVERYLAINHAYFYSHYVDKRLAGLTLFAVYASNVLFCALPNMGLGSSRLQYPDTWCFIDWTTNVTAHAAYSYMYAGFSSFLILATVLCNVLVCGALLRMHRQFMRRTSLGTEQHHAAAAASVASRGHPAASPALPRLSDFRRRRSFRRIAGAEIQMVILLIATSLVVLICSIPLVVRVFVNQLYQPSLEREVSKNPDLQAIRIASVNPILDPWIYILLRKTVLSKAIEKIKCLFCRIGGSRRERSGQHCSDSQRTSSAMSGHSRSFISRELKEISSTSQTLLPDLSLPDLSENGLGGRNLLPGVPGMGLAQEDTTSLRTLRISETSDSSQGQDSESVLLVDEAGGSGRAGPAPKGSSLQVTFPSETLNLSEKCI
PROTOCOL NOTES: Binding affinity to EP4 receptor

The examples below pair each entry with its known result.
# MOLECULE, ASSAY VALUE
measured = [
    ("COc1ccc(Br)cc1S(=O)(=O)NC(=O)/C=C/c1ccccc1Cc1ccc2cc(OCc3ccccc3)ccc2c1", "8 µM (antagonist)"),
    ("O=C(/C=C/c1ccccc1Cc1ccc2cc(OCc3ccccc3)ccc2c1)NS(=O)(=O)c1cccs1", "1.1 µM (antagonist)"),
    ("COc1ccc(Br)cc1S(=O)(=O)NC(=O)/C=C/c1ccccc1Cc1ccc2ccccc2c1", "0.89 µM (antagonist)"),
    ("COc1cc(C/C=C/c2ccccc2/C=C/C(=O)NS(=O)(=O)c2cccs2)ccc1OCc1ccccc1", "0.84 µM (antagonist)"),
]

Quick one: Ki of Cc1ccc(OCc2ccccc2)c(CCCc2ccccc2CCC(=O)O)c1 ?
0.44 µM (antagonist)

Also Cc1ccc(OCc2c(Cl)cccc2Cl)c(/C=C/Cc2ccccc2/C=C/C(=O)O)c1 , if possible.
0.62 µM (antagonist)
